- Test system: HCV replicon 1AY93H
- protocol: microbe, parasite or virus in culture
- Format: cell-based, Hepatitis C virus (HCV)
- measurement context: read-out: 1A Y93H IC50; replicon 1AY93H; Replicon Assay A
readout label: pIC50
The value called pIC50 is obtained by taking minus log10 of the concentration in mol/L.

Would you please look over these solved cases?
compound	pIC50
COC(=O)NC(C(=O)N1CCC[C@H]1c1ncc(-c2ccc3c(c2)cc2n3C(c3ccc(C(C)C)s3)Oc3cc(-c4cnc([C@@H]5CCCN5C(=O)[C@@H](NC(=O)OC)C(C)C)[nH]4)cc(F)c3-2)[nH]1)C1CCOC(C)(C)C1 (single isomer, unassigned) [Compound 237]	9.68
COC(=O)N[C@H](C(=O)C1CCC[C@H]1c1ncc(-c2ccc3c(c2)cc2n3C(c3ccc(C(F)(F)F)s3)Oc3cc(-c4cnc([C@@H]5CCCN5C(=O)[C@@H](NC(=O)OC)C(C)C)[nH]4)cc(F)c3-2)[nH]1)C(C)C (single isomer, unassigned) [Compound 89]	10.48
COC(=O)N[C@H](C(=O)N1CCC[C@H]1c1ncc(-c2cc(F)c3c(c2)OC(c2cc4nccnc4s2)n2c-3cc3cc(-c4cnc([C@@H]5CCCN5C(=O)[C@@H](NC(=O)OC)C(C)C)[nH]4)ccc32)[nH]1)C(C)C (single isomer, unassigned) [Compound 48]	10.57

Quick check: pIC50 on HCV replicon 1AY93H, item COC(=O)NC(C(=O)N1CCC[C@H]1c1ncc(-c2ccc3c(c2)cc2n3C(c3ccc(C4CC4)s3)Oc3cc(-c4cnc([C@@H]5CCCN5C(=O)[C@@H](NC(=O)OC)C(C)C)[nH]4)cc(F)c3-2)[nH]1)C1CCO[C@H](C)C1 (single isomer, unassigned) [Compound 134] ?
11.70

Quick check: pIC50 on HCV replicon 1AY93H, item CCc1ccc(C2Oc3cc(-c4cnc([C@@H]5CCCN5C(=O)[C@@H](NC(=O)OC)C(C)C)[nH]4)cc(F)c3-c3cc4cc(-c5cnc([C@@H]6C[C@H]7C[C@H]7N6C(=O)C(NC(=O)OC)C6CCOC(C)(C)C6)[nH]5)ccc4n32)s1 (single isomer, unassigned) [Compound 198] ?
7.84

Quick check: pIC50 on HCV replicon 1AY93H, item COC(=O)NC(C(=O)N1[C@@H]2C[C@@H]2C[C@H]1c1ncc(-c2ccc3c(c2)cc2n3C(c3ccc(C4CC4)s3)Oc3cc(-c4cnc([C@@H]5CCCN5C(=O)[C@@H](NC(=O)OC)C(C)C)[nH]4)cc(F)c3-2)[nH]1)C1CCOC(C)(C)C1 (single isomer, unassigned) [Compound 276] ?
12.00

Quick check: pIC50 on HCV replicon 1AY93H, item CCCc1ccc(C2Oc3cc(-c4cnc([C@@H]5CCCN5C(=O)[C@@H](NC(=O)OC)C(C)C)[nH]4)cc(F)c3-c3cc4cc(-c5cnc([C@@H]6CCCN6C(=O)[C@@H](NC(=O)OC)C6CCOCC6)[nH]5)ccc4n32)s1 (single isomer, unassigned) [Compound 346] ?
10.38

* * *

- System: HCV replicon 2B
- protocol: microbe, parasite or virus in culture
- Format: cell-based, Hepatitis C virus (HCV)
- measurement context: read-out: 2B IC50; HCV replicon 2B; Replicon Assay A
pIC50 listing for selected compounds.
The value called pIC50 is obtained by taking minus log10 of the concentration in mol/L.

Would you please look over these solved cases?
compound	pIC50
COC(=O)N[C@H](C(=O)N1C[C@H](F)C[C@H]1c1ncc(-c2ccc3c(c2)cc2n3C(c3cc4ccccc4s3)Oc3cc(-c4cnc([C@@H]5CCCN5C(=O)[C@@H](NC(=O)OC)C5CCOCC5)[nH]4)ccc3-2)[nH]1)C(C)C (single isomer, unassigned) [Compound 625]	9.84
CCCc1ccc(C2Oc3cc(-c4cnc([C@@H]5CCCN5C(=O)[C@@H](NC(=O)OC)C(C)C)[nH]4)cc(F)c3-c3cc4cc(-c5cnc([C@@H]6C[C@H]7C[C@H]7N6C(=O)[C@@H](NC(=O)OC)C(C)C)[nH]5)ccc4n32)s1 (single isomer, unassigned) [Compound 561]	9.64
COC(=O)NC(C(=O)N1[C@@H]2C[C@@H]2C[C@H]1c1ncc(-c2ccc3c(c2)cc2n3C(c3ccc(CC4CC4)s3)Oc3cc(-c4cnc([C@@H]5CCCN5C(=O)[C@@H](NC(=O)OC)C(C)C)[nH]4)cc(F)c3-2)[nH]1)C1CCOC(C)(C)C1 (single isomer, unassigned) [Compound 416]	9.98
COC(=O)NC(C(=O)N1CCC[C@H]1c1ncc(-c2ccc3c(c2)cc2n3C(c3ccc(C4CCCC4)s3)Oc3cc(-c4cnc([C@@H]5CCCN5C(=O)[C@@H](NC(=O)OC)C(C)C)[nH]4)cc(F)c3-2)[nH]1)C1C[C@@H](C)O[C@@H](C)C1 (single isomer, unassigned) [Compound 656]	11.59
COC(=O)NC(C(=O)N1[C@@H]2C[C@@H]2C[C@H]1c1ncc(-c2ccc3c(c2)c(F)c2n3C(c3ccc(C4CC4)s3)Oc3cc(-c4cnc([C@@H]5CCCN5C(=O)[C@@H](NC(=O)OC)C(C)C)[nH]4)ccc3-2)[nH]1)C1C[C@@H](C)O[C@@H](C)C1 (single isomer, unassigned) [Compound 644]	10.57

Quick check: pIC50 on HCV replicon 2B, item COC(=O)N[C@H](C(=O)N1CCC[C@H]1c1ncc(-c2cc(F)c3c(c2)OC(c2ccc(CC(C)C)s2)n2c-3cc3cc(-c4cnc([C@@H]5CCCN5C(=O)[C@@H](NC(=O)OC)C(C)C)[nH]4)ccc32)[nH]1)C(C)C (single isomer, unassigned) [Compound 520] ?
9.23

Quick check: pIC50 on HCV replicon 2B, item COC(=O)N[C@H](C(=O)N1C[C@H](F)C[C@H]1c1nc(-c2ccc3c(c2)OC(c2ccc(C)s2)n2c-3cc3cc(-c4c[nH]c([C@@H]5C[C@H]6C[C@H]6N5C(=O)[C@@H](NC(=O)OC)C5CCOCC5)n4)ccc32)c[nH]1)C1CCOCC1 (single isomer, unassigned) [Compound 729] ?
10.47

Quick check: pIC50 on HCV replicon 2B, item COC(=O)N[C@H](C(=O)N1CCC[C@H]1c1ncc(-c2ccc3c(c2)OC(c2cc(C)c(C)s2)n2c-3cc3cc(-c4cnc([C@@H]5C[C@H]6C[C@H]6N5C(=O)[C@@H](NC(=O)OC)C(C)C)[nH]4)ccc32)[nH]1)C(C)C (single isomer, unassigned) [Compound 502] ?
10.24

* * *

- Tested on: HCV replicon 1AY93H
- protocol: microbe, parasite or virus in culture
- Assay type: cell-based, Hepatitis C virus (HCV)
- measurement context: read-out: 1A Y93H IC50; HCV replicon 1A Y93H; Replicon Assay A
- Procedure: To measure cell-based anti-HCV activity of compounds of the present invention, two complimentary assays were employed using various replicons. […] The replicon RNA level was measured using real time PCR (TaqMan® EZ RT-PCR, Applied Biosystems 403028) with the following primers and probes: […] The amount of HCV replicon RNA per cell is quantified using a linear regression curve for a known nanogram (ng) amount of HCV replicon total RNA. […]
IC50 listing for selected compounds.
Please provide the amount together with its unit, number first.

compound	test value
COC(=O)N[C@H](C(=O)N1CCC[C@H]1c1ncc(-c2cc(F)c3c(c2)OC(c2scc4c2OCCO4)n2c-3cc3cc(-c4cnc([C@@H]5CCCN5C(=O)[C@@H](NC(=O)OC)C(C)C)[nH]4)ccc32)[nH]1)C(C)C (single isomer, unassigned) [Compound 525]	15.1 nM

Find the recorded IC50 belonging to COC(=O)NC(C(=O)N1CCC[C@H]1c1ncc(-c2ccc3c(c2)cc2n3C(c3ccc(C4CCCC4)s3)Oc3cc(-c4cnc([C@@H]5CCCN5C(=O)[C@@H](NC(=O)OC)C(C)C)[nH]4)cc(F)c3-2)[nH]1)C1C[C@@H](C)O[C@@H](C)C1 (single isomer, unassigned) [Compound 657] and report it.
0.105 nM

* * *

- Tested on: HCV replicon 1A
- protocol: microbe, parasite or virus in culture
- Type: cell-based, Hepatitis C virus (HCV)
- measurement context: HCV replicon 1A; Replicon Assay A
readout label: pIC50
The value called pIC50 is obtained by taking minus log10 of the concentration in mol/L.

Would you please look over these solved cases?
compound	pIC50
COC(=O)NC(C(=O)N1[C@@H]2C[C@@H]2C[C@H]1c1ncc(-c2ccc3c(c2)c(F)c2n3C(c3ccc(C4CC4)s3)Oc3cc(-c4cnc([C@@H]5CCCN5C(=O)[C@@H](NC(=O)OC)C(C)C)[nH]4)cc(F)c3-2)[nH]1)C1CCOC(C)(C)C1 (single isomer, unassigned)	11.68
COC(=O)NC(C(=O)N1[C@@H]2C[C@@H]2C[C@H]1c1ncc(-c2ccc3c(c2)cc2n3C(c3ccc(CC4CC4)s3)Oc3cc(-c4cnc([C@@H]5CCCN5C(=O)[C@@H](NC(=O)OC)C(C)C)[nH]4)cc(F)c3-2)[nH]1)C1CCOC(C)(C)C1 (single isomer, unassigned) [Compound 419]	11.14
COC(=O)N[C@H](C(=O)N1C[C@H](F)C[C@H]1c1ncc(-c2ccc3c(c2)OC(c2ccc(C)s2)n2c-3cc3cc(-c4cnc([C@@H]5C[C@H]6C[C@H]6N5C(=O)[C@@H](NC(=O)OC)C(C)C)[nH]4)ccc32)[nH]1)C(C)C (single isomer, unassigned) [Compound 708]	10.74

Okay, now this compound:
Find the recorded pIC50 belonging to COC(=O)N[C@H](C(=O)N1CCC[C@H]1c1ncc(-c2cc(F)c3c(c2)OC(c2cc4c(s2)CCC4)n2c-3cc3cc(-c4cnc([C@@H]5C[C@H]6C[C@H]6N5C(=O)[C@@H](NC(=O)OC)C5CCOCC5)[nH]4)ccc32)[nH]1)C(C)C (single isomer, unassigned) [Compound 541] and report it.
10.83

Origin of measurements: patent US20160257697A1
